# Protocol description: log P by HPLC on reversed-phase column (C18)
# Type: physicochemical
# Condition label: LC-UV, neutral range, ammonium acetate/acetonitrile, read-out: log P (neutral)
Entries annotated with measured chromatographic logP
Number, no unit, nothing else.

Reference set (2 entries):
[
  {
    "Mol smiles": "CCS(=O)(=O)c1ccc(-n2ncn(-c3ccc(F)cc3)c2=O)nc1-c1nc2cc(C(F)(F)C(F)(F)F)cnc2n1C",
    "Reported measurement": 3.53
  },
  {
    "Mol smiles": "CCS(=O)(=O)c1ccc(F)nc1-c1nc2cc(C(F)(F)C(F)(F)F)cnc2n1C",
    "Reported measurement": 3.33
  }
]

Request: Which chromatographic logP value belongs to `Cn1c(-c2nc(F)ccc2F)nc2cc(C(F)(F)C(F)(F)F)cnc21` ?
Response: 3.3
